A collection of compounds and their measured MIC50
# Tested on: Enterococcus sp.
# run_description: Antimicrobial activity against Enterococcus by broth dilution method
# Assay type: functional
# experimental_parameters: Enterococcus sp.
Reply with just the number (in µg/mL).

# compound_structure, recorded_result
measured = [
    ("Cn1nnc(-c2ccc(-c3ccc(N4C[C@H](CO)OC4=O)cc3F)cn2)n1", 0.5),
]

Now, please, on to the next compound.
Record summary for CC(=O)NC[C@H]1CN(c2ccc(N3CCOCC3)c(F)c2)C(=O)O1 : reported MIC50 = 2

----------
# Test system: Staphylococcus aureus
# run_description: Antimicrobial activity against Staphylococcus aureus by broth dilution method
# Format: functional
# experimental_parameters: Staphylococcus aureus
A collection of molecules and their measured MIC50
Reply with just the number (in µg/mL).

Here's what some known entries look like.
# molecule, MIC50, µg/mL
records = [
    ("C[C@H]1COc2c(N3CCN(C)CC3)c(F)cc3c(=O)c(C(=O)O)cn1c23.C[C@H]1COc2c(N3CCN(C)CC3)c(F)cc3c(=O)c(C(=O)O)cn1c23.O [LEVOFLOXACIN]", 4),
    ("Cn1nnc(-c2ccc(-c3ccc(N4C[C@H](CO)OC4=O)cc3F)cn2)n1 [TEDIZOLID]", 0.5),
]

Now, please, on to the next molecule.
Record summary for CC(=O)NC[C@H]1CN(c2ccc(N3CCOCC3)c(F)c2)C(=O)O1 [LINEZOLID] : reported MIC50 = 2
